Target: Estradiolrezeptor (Oryctolagus cuniculus)
Sequence (G1SML6 1-598): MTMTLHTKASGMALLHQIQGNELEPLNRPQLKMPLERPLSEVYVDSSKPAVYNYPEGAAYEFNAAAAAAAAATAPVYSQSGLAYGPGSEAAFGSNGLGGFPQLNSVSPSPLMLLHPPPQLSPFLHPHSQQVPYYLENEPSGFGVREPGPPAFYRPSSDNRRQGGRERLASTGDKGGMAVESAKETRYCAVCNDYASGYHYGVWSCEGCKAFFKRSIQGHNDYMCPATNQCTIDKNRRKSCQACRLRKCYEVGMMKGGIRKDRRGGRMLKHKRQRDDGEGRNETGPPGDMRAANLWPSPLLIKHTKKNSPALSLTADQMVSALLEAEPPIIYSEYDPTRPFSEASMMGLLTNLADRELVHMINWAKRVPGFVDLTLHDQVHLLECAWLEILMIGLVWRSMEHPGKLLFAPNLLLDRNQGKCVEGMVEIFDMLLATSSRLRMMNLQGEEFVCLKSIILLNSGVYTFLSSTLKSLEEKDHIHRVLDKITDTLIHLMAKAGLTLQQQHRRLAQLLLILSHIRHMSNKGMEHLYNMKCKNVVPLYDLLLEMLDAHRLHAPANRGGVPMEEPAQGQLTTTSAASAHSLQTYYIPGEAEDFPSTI
endpoint: IC50 (µM)
Write the number in µM without appending the unit.

For CC/C(=C(/c1ccc(OCCN(C)C)cc1)c1cccc(O)c1)c1ccc(Cl)cc1 , what is its reported IC50?
0.085
